System: U251 CNS
Assay: NCI-60 one-dose screen, 48 h (100 = growth as untreated, 0 = no growth, -100 = all killed)
Conditions: 10 µM unless noted
Experimental: Growth inhibition of the U251 human tumor cell line is measured as a screen for anti-cancer activity. Cells are grown in 96 well plates and exposed to the test compound for 48 hours. Compounds are tested at a single concentration, which is 10^-5 M for most compounds. The reported endpoint is percent growth (GI% or GIPRCNT), where numbers from 0 - 100% represent growth inhibition, and numbers from -100% - 0 represent cell death. For example, a value of 40 represents 60% growth inhibition. […]
Compounds without any hit were thinned out: in the full panel of roughly 83,000, 20% have a hit.
Tick rule met if growth is 30% or greater. Tick rule not met if growth is less than 30%.

Use the examples below as a reference point.
compound	groupLabel
CCNCCNc1cc(-c2ccc(C(F)(F)F)cc2)c(C#N)c2nc3ccccc3n12	rule not met
COC(=O)/C=C1/SC(=Nc2ccc(C(F)(F)F)cc2)N(CCc2c[nH]c3ccc(O)cc23)C1=O	rule not met
C=CC[Se]C(=O)Cc1c(C)n(C(=O)c2ccc(Cl)cc2)c2ccc(OC)cc12	rule not met
Cc1ccc(-c2nc(N3CCCNCC3)c3oc(-c4ccccc4)nc3n2)cc1	rule not met
CCC(C(=O)[C@@H](C)[C@@H](O)[C@H](C)[C@@H]1O[C@@H]([C@@H](CC)C(=O)ONC(=O)c2ccccc2)CC[C@@H]1C)[C@H]1O[C@]2(C=CC(=O)[C@]3(CC[C@@](C)([C@H]4CC[C@](O)(CC)[C@H](C)O4)O3)O2)[C@H](C)C[C@@H]1C (stereo partly drawn)	rule not met

INPUT: Reported growth reaches at least 30% for CCSC(SCC)c1ccc(Cl)cc1 ?
OUTPUT: rule met

INPUT: Reported growth reaches at least 30% for Clc1ccc2c(NC3CCC(N4CCOCC4)CC3)ccnc2c1 (stereo not drawn) ?
OUTPUT: rule met

INPUT: Reported growth reaches at least 30% for Nc1n[nH]c2cccc(C#Cc3cccc(NC(=O)c4cc(F)cc(C(F)(F)F)c4)c3)c12 ?
OUTPUT: rule met
